assay: Solid-state stability under high temperature, high humidity, light exposure and acceleration conditions (HPLC purity, XRPD form); assay type: physicochemical; conditions: solid state, High humidity 92.5% RH, 15d
ASSAY ENDPOINT: remaining at 360 h (%)
Provide the reading as a plain figure in %.

query: Which remaining at 360 h reading was recorded for the molecule O=C(N[C@@H](Cc1ccc(N2C(=O)C3(CC3)c3ccc(F)c(F)c32)cc1)C(=O)O)c1c(F)cccc1Cl [Crystal Form A] ?
result: 99.3

###

assay: Solid-state stability under high temperature, high humidity, light exposure and acceleration conditions (HPLC purity, XRPD form); format: physicochemical; conditions: solid state, Acceleration 40° C./75% RH, 7d
ASSAY ENDPOINT: remaining at 168 h

query: Field request: remaining at 168 h | item: O=C(N[C@@H](Cc1ccc(N2C(=O)C3(CC3)c3ccc(F)c(F)c32)cc1)C(=O)O)c1c(F)cccc1Cl [Crystal Form A]
result: 99.4%
